In this section, each of the sequences is paired with its reported shrunken log2 fold change.
Test system: Escherichia coli TOP10;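 also: peptides expressed intracellularly from a pBAD plasmid library in pooled LB shake-flask culture, induced with 0.3% L-arabinose, DNA abundance read by NGS, three biological replicates, DESeq2 with apeglm shrinkage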
MEASUREMENT_NOTES: shrunken log2 fold change of peptide-encoding DNA abundance (4.5 h post-induction vs induction); higher = less antimicrobial activity (less host growth inhibition)
ASSAY_SETUP: time post-induction: 4.5 h; library: site-saturation at positions 5, 18, 19, 20
# output: bare number, no unit

>>> observed("RRIRPRPPRLPRPRPRPLLVPRP")
0.1
>>> observed("RRIRKRPPRLPRPRPRPWNGPRP")
-0.0782
>>> observed("RRIRNRPPRLPRPRPRPFKNPRP")
0.0633
>>> observed("RRIRGRPPRLPRPRPRPYPTPRP")
0.0422

Proceeding to the next sequence to report its shrunken log2 fold change.
Request: Look up and report measured shrunken log2 fold change (Escherichia coli TOP10) for the following sequence: RRIRHRPPRLPRPRPRPVDAPRP
Response: 0.131

These measurements were taken from the supplement of paper PMC9112550.
